The following compounds are listed with their measured Inhibition values.
tested on: Staphylococcus aureus; details: Concentration 20 uM; ASSAY_TEST Inhibition of Bacterial Growth; detection method Absorption (OD600); MEDIA CAMHB; plate type 384well; NBS; CORNING #3640; time 18 hr
Description: Antibacterial activity against Staphylococcus aureus MRSA ATCC 43300 (CO-ADD:GP_020); MIC in CAMBH media, using NBS plates, by OD(600)
Results with a measured potency or affinity are listed apart.
quantity name: Inhibition (%)

compound | quantity name | unit of measurement | meas value
N=C(NCc1ccc(Cl)cc1)SCCCc1c[nH]cn1 | Inhibition | % | -4.61
CC(C(=O)O)c1ccc(-c2ccccc2)c(F)c1 (stereo not drawn) | Inhibition | % | 10.54
COc1cc2c(cc1OC)[C@@]13CCN4CC5=CCO[C@H]6CC(=O)N2[C@H]1[C@H]6[C@H]5C[C@H]43 | Inhibition | % | 7.1
Cl.FC(F)(F)c1cccc(N2CCNCC2)c1 | Inhibition | % | -3.1
CC(=O)[C@H]1CC[C@H]2[C@@H]3CCC4=CC(=O)CC[C@]4(C)[C@H]3CC[C@]12C | Inhibition | % | 12.63
Cc1ccc(-c2nc3ccc(C)cn3c2CC(=O)N(C)C)cc1.Cc1ccc(-c2nc3ccc(C)cn3c2CC(=O)N(C)C)cc1.O=C(O)C(O)C(O)C(=O)O [ZOLPIDEM TARTRATE] | Inhibition | % | 4.54
CN1[C@@H](CC(=O)c2ccccc2)CCC[C@H]1C[C@H](O)c1ccccc1.Cl [LOBELINE HYDROCHLORIDE] | Inhibition | % | 13.97
NC(=O)OCCCc1ccccc1 [PHENPROBAMATE] | Inhibition | % | 11.43
CN1C(=O)CN=C(c2ccccc2)c2cc([N+](=O)[O-])ccc21 | Inhibition | % | 10.78
Cl.NCCc1ccc(O)c(O)c1 [DOPAMINE HYDROCHLORIDE] | Inhibition | % | 8.23
C[C@H](CCC(=O)O)[C@H]1CC[C@H]2[C@@H]3[C@@H](O)C[C@@H]4C[C@H](O)CC[C@]4(C)[C@H]3CC[C@]12C | Inhibition | % | 5.15
Cc1ccnc2c1NC(=O)c1cccnc1N2C1CC1 | Inhibition | % | 12.92
C[N+]1(CCC(C(N)=O)(c2ccccc2)c2ccccc2)CCCCC1.[Br-] [FENPIVERINIUM BROMIDE] | Inhibition | % | 4.81
NC1=NC(=O)C(c2ccccc2)O1 (stereo not drawn) | Inhibition | % | 13.44
COc1cc(CNC(=O)CCCC/C=C\C(C)C)ccc1O | Inhibition | % | 14.17
O=C(O)C(Cl)Cl | Inhibition | % | 11.87
O=C(O[C@@H]1Cc2c(O)cc(O)cc2O[C@@H]1c1cc(O)c(O)c(O)c1)c1cc(O)c(O)c(O)c1 [EPIGALOCATECHIN GALLATE] | Inhibition | % | 13.39
CCCCCNC(=N)N/N=C/c1c[nH]c2ccc(OC)cc12.O=C(O)/C=C\C(=O)O [TEGASEROD MALEATE] | Inhibition | % | 22.85
